assay_summary: Drug distribution in mouse liver at 5.47 mg/kg, po measured at 6 hrs by LC-MS/MS analysis
Type: ADME, organism-based
condition_description: read-out: Drug uptake
metric_name: concentration at 6 h (ng/g)
# unit: ng/g | format: bare number

Look up concentration at 6 h: CC(C)C[C@@H](N)C(=O)OCCCOP(=O)(COCCn1cnc2c(N)ncnc21)OCCCOC(=O)CC[C@@H](C)[C@H]1CC[C@H]2[C@@H]3[C@@H](O)C[C@@H]4C[C@H](O)CC[C@]4(C)[C@H]3CC[C@]12C (stereo partly specified)
721

---

System: HepG2 2.2.15
assay_summary: Cytotoxicity against human HepG2.2.15 cells assessed as reduction in cell viability incubated for 12 hrs followed by replacement of fresh medium containing compound and measured after 2 days by CCK-8 assay
Format: functional
metric_name: CC50 (mM)
# unit: mM | format: bare number

Solved cases (3 shown):
CC(C)C[C@H](N)C(=O)SCCCOP(=O)(COCCn1cnc2c(N)ncnc21)OCCCOC(=O)CC[C@@H](C)[C@H]1CC[C@H]2[C@@H]3[C@@H](O)C[C@@H]4C[C@H](O)CC[C@]4(C)[C@H]3CC[C@]12C (some centres undefined) : 2.07
CC(C)C[C@@H](N)C(=O)OCCCOP(=O)(COCCn1cnc2c(N)ncnc21)OCCCOC(=O)CC[C@@H](C)[C@H]1CC[C@H]2[C@@H]3CC[C@@H]4C[C@H](O)CC[C@]4(C)[C@H]3C[C@H](O)[C@]12C (some centres undefined) : 0.876
C[C@H](CCC(=O)OCCCOP(=O)(COCCn1cnc2c(N)ncnc21)OCCCSC(=O)[C@@H](N)Cc1ccccc1)[C@H]1CC[C@H]2[C@@H]3[C@@H](O)C[C@@H]4C[C@H](O)CC[C@]4(C)[C@H]3CC[C@]12C (some centres undefined) : 3.04

# ---- query compound ----
Need CC50 of CC(C)[C@@H](N)C(=O)OCCCOP(=O)(COCCn1cnc2c(N)ncnc21)OCCCOC(=O)CC[C@@H](C)[C@H]1CC[C@H]2[C@@H]3[C@@H](O)C[C@@H]4C[C@H](O)CC[C@]4(C)[C@H]3CC[C@]12C (some centres undefined) , thanks.
0.407

---

assay_summary: Selectivity index, ratio of CC50 for cytotoxicity against human HepG2.2.15 cells to EC50 for HBV infected in human HepG2.2.15 cells
Type: toxicity, cell-based
condition_description: read-out: Ratio CC50/EC50
metric_name: selectivity ratio

CC(C)C[C@@H](N)C(=O)OCCCOP(=O)(COCCn1cnc2c(N)ncnc21)OCCCOC(=O)CC[C@@H](C)[C@H]1CC[C@H]2[C@@H]3[C@@H](O)C[C@@H]4C[C@H](O)CC[C@]4(C)[C@H]3CC[C@]12C (some centres not stated) : 1060

What does the data say about its selectivity ratio? Entry: CC(C)[C@@H](N)C(=O)OCCCOP(=O)(COCCn1cnc2c(N)ncnc21)OCCCOC(=O)CC[C@@H](C)[C@H]1CC[C@H]2[C@@H]3[C@@H](O)C[C@@H]4C[C@H](O)CC[C@]4(C)[C@H]3CC[C@]12C (some centres not stated)
122

---

Test system: HepG2 2.2.15
assay_summary: Cytotoxicity against human HepG2.2.15 cells assessed as reduction in cell viability incubated for 12 hrs followed by replacement of fresh medium containing compound and measured after 2 days by CCK-8 assay
Type: functional
# reported CC50; entries follow

A selection of reference data follows.
CC(C)[C@H](N)C(=O)SCCCOP(=O)(COCCn1cnc2c(N)ncnc21)OCCCOC(=O)CC[C@@H](C)[C@H]1CC[C@H]2[C@@H]3CC[C@@H]4C[C@H](O)CC[C@]4(C)[C@H]3C[C@H](O)[C@]12C (stereo not given in full) : 1020 µM
CC[C@H](C)[C@@H](N)C(=O)OCCCOP(=O)(COCCn1cnc2c(N)ncnc21)OCCCOC(=O)CC[C@@H](C)[C@H]1CC[C@H]2[C@@H]3[C@@H](O)C[C@@H]4C[C@H](O)CC[C@]4(C)[C@H]3CC[C@]12C (stereo not given in full) : 378 µM
CC(C)[C@@H](N)C(=O)OCCCOP(=O)(COCCn1cnc2c(N)ncnc21)OCCCOC(=O)CC[C@@H](C)[C@H]1CC[C@H]2[C@@H]3CC[C@@H]4C[C@H](O)CC[C@]4(C)[C@H]3C[C@H](O)[C@]12C (stereo not given in full) : 666 µM
CC(C)[C@H](N)C(=O)SCCCOP(=O)(COCCn1cnc2c(N)ncnc21)OCCCOC(=O)CC[C@@H](C)[C@H]1CC[C@H]2[C@@H]3[C@@H](O)C[C@@H]4C[C@H](O)CC[C@]4(C)[C@H]3CC[C@]12C (stereo not given in full) : 1840 µM

Consider the additional compound presented here.
Which CC50 value belongs to C[C@H](CCC(=O)OCCCOP(=O)(COCCn1cnc2c(N)ncnc21)OCCCOC(=O)[C@@H](C)N)[C@H]1CC[C@H]2[C@@H]3[C@@H](O)C[C@@H]4C[C@H](O)CC[C@]4(C)[C@H]3CC[C@]12C (stereo not given in full) ?
489 µM

---

assay_summary: Selectivity index, ratio of CC50 for cytotoxicity against human HepG2.2.15 cells to EC50 for HBV infected in human HepG2.2.15 cells
Assay type: toxicity, cell-based
condition_description: read-out: Ratio CC50/EC50
metric_name: selectivity ratio
Give the figure by itself; no unit, no explanation.

// below: answered compounds
CC(C)[C@H](N)C(=O)SCCCOP(=O)(COCCn1cnc2c(N)ncnc21)OCCCOC(=O)CC[C@@H](C)[C@H]1CC[C@H]2[C@@H]3[C@@H](O)C[C@@H]4C[C@H](O)CC[C@]4(C)[C@H]3CC[C@]12C (some centres undefined) : 19
CC(C)C[C@@H](N)C(=O)OCCCOP(=O)(COCCn1cnc2c(N)ncnc21)OCCCOC(=O)CC[C@@H](C)[C@H]1CC[C@H]2[C@@H]3CC[C@@H]4C[C@H](O)CC[C@]4(C)[C@H]3C[C@H](O)[C@]12C (some centres undefined) : 89.7
CC[C@H](C)[C@@H](N)C(=O)OCCCOP(=O)(COCCn1cnc2c(N)ncnc21)OCCCOC(=O)CC[C@@H](C)[C@H]1CC[C@H]2[C@@H]3CC[C@@H]4C[C@H](O)CC[C@]4(C)[C@H]3C[C@H](O)[C@]12C (some centres undefined) : 42.5

Which selectivity ratio reading was recorded for the compound C[C@H](CCC(=O)OCCCOP(=O)(COCCn1cnc2c(N)ncnc21)OCCCSC(=O)[C@@H](N)Cc1ccccc1)[C@H]1CC[C@H]2[C@@H]3[C@@H](O)C[C@@H]4C[C@H](O)CC[C@]4(C)[C@H]3CC[C@]12C (some centres undefined) ?
103

---

assay_summary: Drug distribution in mouse liver at 5.47 mg/kg, po measured at 24 hrs by LC-MS/MS analysis
Type: ADME, organism-based
condition_description: read-out: Drug uptake
metric_name: concentration at 24 h

Consider the compound CC(C)C[C@@H](N)C(=O)OCCCOP(=O)(COCCn1cnc2c(N)ncnc21)OCCCOC(=O)CC[C@@H](C)[C@H]1CC[C@H]2[C@@H]3[C@@H](O)C[C@@H]4C[C@H](O)CC[C@]4(C)[C@H]3CC[C@]12C (stereo partly specified) and give its measured concentration at 24 h.
695 ng/g

---

Measured selectivity ratio accompanies every entry in the list below.
assay_summary: Selectivity index, ratio of CC50 for cytotoxicity against human HepG2.2.15 cells to EC50 for HBV infected in human HepG2.2.15 cells
Assay type: toxicity, cell-based
condition_description: read-out: Ratio CC50/EC50
Output: the number by itself.

For orientation, consider the following solved cases.
CC(C)(C)C(=O)OCOP(=O)(COCCn1cnc2c(N)ncnc21)OCOC(=O)C(C)(C)C : 142
C[C@H](CCC(=O)OCCCOP(=O)(COCCn1cnc2c(N)ncnc21)OCCCOC(=O)[C@@H](C)N)[C@H]1CC[C@H]2[C@@H]3[C@@H](O)C[C@@H]4C[C@H](O)CC[C@]4(C)[C@H]3CC[C@]12C (stereo partly drawn) : 90
C[C@H](CCC(=O)OCCCOP(=O)(COCCn1cnc2c(N)ncnc21)OCCCSC(=O)[C@@H](N)Cc1ccccc1)[C@H]1CC[C@H]2[C@@H]3CC[C@@H]4C[C@H](O)CC[C@]4(C)[C@H]3C[C@H](O)[C@]12C (stereo partly drawn) : 41.9
CC(C)[C@H](N)C(=O)SCCCOP(=O)(COCCn1cnc2c(N)ncnc21)OCCCOC(=O)CC[C@@H](C)[C@H]1CC[C@H]2[C@@H]3CC[C@@H]4C[C@H](O)CC[C@]4(C)[C@H]3C[C@H](O)[C@]12C (stereo partly drawn) : 62.5
CC(C)[C@@H](N)C(=O)OCCCOP(=O)(COCCn1cnc2c(N)ncnc21)OCCCOC(=O)CC[C@@H](C)[C@H]1CC[C@H]2[C@@H]3CC[C@@H]4C[C@H](O)CC[C@]4(C)[C@H]3C[C@H](O)[C@]12C (stereo partly drawn) : 59.2

State the recorded selectivity ratio for this entry: CC(C)C[C@H](N)C(=O)SCCCOP(=O)(COCCn1cnc2c(N)ncnc21)OCCCOC(=O)CC[C@@H](C)[C@H]1CC[C@H]2[C@@H]3[C@@H](O)C[C@@H]4C[C@H](O)CC[C@]4(C)[C@H]3CC[C@]12C (stereo partly drawn)
140

What measured selectivity ratio goes with CC[C@H](C)[C@@H](N)C(=O)OCCCOP(=O)(COCCn1cnc2c(N)ncnc21)OCCCOC(=O)CC[C@@H](C)[C@H]1CC[C@H]2[C@@H]3[C@@H](O)C[C@@H]4C[C@H](O)CC[C@]4(C)[C@H]3CC[C@]12C (stereo partly drawn) ?
528

Which selectivity ratio value is on record for C[C@H](CCC(=O)OCCCOP(=O)(COCCn1cnc2c(N)ncnc21)OCCCOC(=O)[C@@H](C)N)[C@H]1CC[C@H]2[C@@H]3CC[C@@H]4C[C@H](O)CC[C@]4(C)[C@H]3C[C@H](O)[C@]12C (stereo partly drawn) ?
48.8
